target: human mGlu4 receptor (Homo sapiens); construct: expressed in transfected cells; host or cells: HEK-293 (monoclonal, stably transfected); assay: Ca2+ mobilization in vitro assay on recombinant human mGlu4 expressed in HEK293 cells (mGlu4 PAM); assay type: cell-based; conditions: HEK293; maximal response in % of the maximal stimulatory effect obtained with saturating concentrations of L-AP4; read-out: Eff. (%)
What Emax was measured for each of the following?
Give the value in % but do not write % after it.

## Input Entry Cc1ccc([C@]2(C)CC(=O)N(c3c(F)cc(C#Cc4ccccc4)cc3F)C(=O)N2C)cn1 [Example 54] has what Emax?
## Output 98

## Input Continue with CN1C(=O)N(c2c(F)cc(C#Cc3ccccc3)cc2F)C(=O)C[C@@]1(C)c1ccncc1 [Example 78]
## Output 111

## Input Continue with CN1C(=O)N(c2c(F)cc(C#Cc3ccccc3)cc2F)C(=O)C[C@@]1(C)c1ccc(=O)n(C)n1 [Example 83]
## Output 116

## Input Continue with CN1C(=O)N(c2c(F)cc(C#Cc3ccccc3)cc2F)C(=O)C[C@@]1(C)c1ccnnc1 [Example 61]
## Output 136

## Input Continue with CC1C(=O)N(c2c(F)cc(C#Cc3ccccc3)cc2F)C(=O)N(C)C1(C)C (racemic) [Example 7]
## Output 148

## Input Continue with CN1C(=O)N(c2ccc(C#Cc3ccccc3)cc2)C(=O)CC1(C)c1ccccc1 (racemic) [Example 24]
## Output 126

## Input Continue with CN1C(=O)N(c2ncc(C#Cc3ccccc3)cc2Cl)C(=O)CC1(C)c1ccccc1 (racemic) [Example 32]
## Output 103

## Input Continue with CCn1cc([C@]2(C)CC(=O)N(c3c(F)cc(C#Cc4ccccc4)cc3F)C(=O)N2C)ccc1=O [Example 67]
## Output 106

## Input Continue with CN1C(=O)N(c2c(F)cc(C#Cc3ccccc3)cc2F)C(=O)[C@H]2CCC[C@H]21 (racemic) [Example 11]
## Output 131

## Input Continue with CN1C(=O)N(c2c(F)cc(C#Cc3ccccc3)cc2F)C(=O)CC1(C)C [Example 1]
## Output 191

## Input Continue with CN1C(=O)N(c2c(F)cc(C#Cc3ccccc3)cc2F)C(=O)C[C@@]1(C)c1cncc(F)c1 [Example 59]
## Output 89

## Input Continue with CC12CC(=O)N(c3c(F)cc(C#Cc4ccccc4)cc3F)C(=O)N1CCNC2=O (racemic) [Example 25]
## Output 105

## Input Continue with CCC1(C)CC(=O)N(c2c(F)cc(C#Cc3ccccc3)cc2F)C(=O)N1C (racemic) [Example 18]
## Output 241

## Input Continue with CN1C(=O)N(c2c(F)cc(C#Cc3ccccc3)cc2F)C(=O)C[C@@]1(C)c1cncnc1 [Example 56]
## Output 99

## Input Continue with CCN1C(=O)N(c2c(F)cc(C#Cc3cccnc3)cc2F)C(=O)CC1(C)c1ccccc1 (racemic) [Example 16]
## Output 136

## Input Continue with CN1C(=O)N(c2c(F)cc(C#Cc3cccnc3)cc2F)C(=O)CC1(C)c1ccccc1 (racemic) [Example 15]
## Output 134

* * *

target: human mGlu4 receptor (Homo sapiens, UniProt Q14833); construct: expressed in transfected cells; host or cells: HEK-293 (monoclonal, stably transfected); test: Ca2+ mobilization in vitro assay on recombinant human mGlu4 expressed in HEK293 cells (mGlu4 PAM); assay type: cell-based; details: HEK-293 cells, Ca2+ mobilization, L-AP4 added at EC20
Sequence (Q14833 33-912): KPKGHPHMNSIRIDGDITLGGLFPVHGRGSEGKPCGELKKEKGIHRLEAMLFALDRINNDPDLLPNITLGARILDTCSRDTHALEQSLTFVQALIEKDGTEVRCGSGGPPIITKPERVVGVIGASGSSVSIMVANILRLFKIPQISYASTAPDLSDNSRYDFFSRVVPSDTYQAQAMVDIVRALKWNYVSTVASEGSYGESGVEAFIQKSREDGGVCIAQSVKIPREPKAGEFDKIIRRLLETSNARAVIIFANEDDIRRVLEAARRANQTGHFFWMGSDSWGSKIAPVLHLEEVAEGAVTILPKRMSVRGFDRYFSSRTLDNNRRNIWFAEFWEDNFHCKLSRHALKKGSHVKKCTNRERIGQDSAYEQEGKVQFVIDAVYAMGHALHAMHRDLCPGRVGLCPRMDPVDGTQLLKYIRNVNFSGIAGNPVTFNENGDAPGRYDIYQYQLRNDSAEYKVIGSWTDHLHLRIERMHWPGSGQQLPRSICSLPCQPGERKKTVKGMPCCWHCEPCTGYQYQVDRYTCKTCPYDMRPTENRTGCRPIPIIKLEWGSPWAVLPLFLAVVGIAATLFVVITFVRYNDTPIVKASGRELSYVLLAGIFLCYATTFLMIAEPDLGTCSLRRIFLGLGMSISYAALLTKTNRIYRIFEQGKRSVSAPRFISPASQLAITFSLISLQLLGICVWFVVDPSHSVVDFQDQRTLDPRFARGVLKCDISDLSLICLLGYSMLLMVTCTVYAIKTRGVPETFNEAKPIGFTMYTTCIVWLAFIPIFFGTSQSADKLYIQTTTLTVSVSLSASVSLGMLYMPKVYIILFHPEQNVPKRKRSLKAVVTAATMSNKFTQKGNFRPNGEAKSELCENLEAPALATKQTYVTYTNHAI
What EC50 was measured for each of the following?
Give the value in nM but do not write nM after it.

## Input Entry CN1C(=O)N(c2c(F)cc(C#Cc3cccnc3)cc2F)C(=O)CC1(C)c1ccccc1 (racemic) [Example 15] has what EC50?
## Output 100

## Input Continue with Cc1cc([C@]2(C)CC(=O)N(c3c(F)cc(C#Cc4ccccc4)cc3F)C(=O)N2C)ccn1
## Output 56

## Input Continue with COc1ccc([C@]2(C)CC(=O)N(c3c(F)cc(C#Cc4ccccc4)cc3F)C(=O)N2C)cn1
## Output 42

## Input Continue with Cc1nccc([C@]2(C)CC(=O)N(c3c(F)cc(C#Cc4ccccc4)cc3F)C(=O)N2C)n1
## Output 103

## Input Continue with COc1cc([C@]2(C)CC(=O)N(c3c(F)cc(C#Cc4ccccc4)cc3F)C(=O)N2C)ccn1
## Output 47

## Input Continue with CN1C(=O)N(c2c(F)cc(C#Cc3ccccc3)cc2F)C(=O)CC12CCCOC2 (racemic)
## Output 183

## Input Continue with CN1C(=O)N(c2c(F)cc(C#Cc3cccnc3)cc2F)C(=O)CC1(C)c1ccc(Cl)cc1 (racemic)
## Output 229

// data source = patent US9725416B2
